Measured on: Histone acetyltransferase p300 (Homo sapiens)
Sequence (Q09472 whole entry, the tested form may be a part): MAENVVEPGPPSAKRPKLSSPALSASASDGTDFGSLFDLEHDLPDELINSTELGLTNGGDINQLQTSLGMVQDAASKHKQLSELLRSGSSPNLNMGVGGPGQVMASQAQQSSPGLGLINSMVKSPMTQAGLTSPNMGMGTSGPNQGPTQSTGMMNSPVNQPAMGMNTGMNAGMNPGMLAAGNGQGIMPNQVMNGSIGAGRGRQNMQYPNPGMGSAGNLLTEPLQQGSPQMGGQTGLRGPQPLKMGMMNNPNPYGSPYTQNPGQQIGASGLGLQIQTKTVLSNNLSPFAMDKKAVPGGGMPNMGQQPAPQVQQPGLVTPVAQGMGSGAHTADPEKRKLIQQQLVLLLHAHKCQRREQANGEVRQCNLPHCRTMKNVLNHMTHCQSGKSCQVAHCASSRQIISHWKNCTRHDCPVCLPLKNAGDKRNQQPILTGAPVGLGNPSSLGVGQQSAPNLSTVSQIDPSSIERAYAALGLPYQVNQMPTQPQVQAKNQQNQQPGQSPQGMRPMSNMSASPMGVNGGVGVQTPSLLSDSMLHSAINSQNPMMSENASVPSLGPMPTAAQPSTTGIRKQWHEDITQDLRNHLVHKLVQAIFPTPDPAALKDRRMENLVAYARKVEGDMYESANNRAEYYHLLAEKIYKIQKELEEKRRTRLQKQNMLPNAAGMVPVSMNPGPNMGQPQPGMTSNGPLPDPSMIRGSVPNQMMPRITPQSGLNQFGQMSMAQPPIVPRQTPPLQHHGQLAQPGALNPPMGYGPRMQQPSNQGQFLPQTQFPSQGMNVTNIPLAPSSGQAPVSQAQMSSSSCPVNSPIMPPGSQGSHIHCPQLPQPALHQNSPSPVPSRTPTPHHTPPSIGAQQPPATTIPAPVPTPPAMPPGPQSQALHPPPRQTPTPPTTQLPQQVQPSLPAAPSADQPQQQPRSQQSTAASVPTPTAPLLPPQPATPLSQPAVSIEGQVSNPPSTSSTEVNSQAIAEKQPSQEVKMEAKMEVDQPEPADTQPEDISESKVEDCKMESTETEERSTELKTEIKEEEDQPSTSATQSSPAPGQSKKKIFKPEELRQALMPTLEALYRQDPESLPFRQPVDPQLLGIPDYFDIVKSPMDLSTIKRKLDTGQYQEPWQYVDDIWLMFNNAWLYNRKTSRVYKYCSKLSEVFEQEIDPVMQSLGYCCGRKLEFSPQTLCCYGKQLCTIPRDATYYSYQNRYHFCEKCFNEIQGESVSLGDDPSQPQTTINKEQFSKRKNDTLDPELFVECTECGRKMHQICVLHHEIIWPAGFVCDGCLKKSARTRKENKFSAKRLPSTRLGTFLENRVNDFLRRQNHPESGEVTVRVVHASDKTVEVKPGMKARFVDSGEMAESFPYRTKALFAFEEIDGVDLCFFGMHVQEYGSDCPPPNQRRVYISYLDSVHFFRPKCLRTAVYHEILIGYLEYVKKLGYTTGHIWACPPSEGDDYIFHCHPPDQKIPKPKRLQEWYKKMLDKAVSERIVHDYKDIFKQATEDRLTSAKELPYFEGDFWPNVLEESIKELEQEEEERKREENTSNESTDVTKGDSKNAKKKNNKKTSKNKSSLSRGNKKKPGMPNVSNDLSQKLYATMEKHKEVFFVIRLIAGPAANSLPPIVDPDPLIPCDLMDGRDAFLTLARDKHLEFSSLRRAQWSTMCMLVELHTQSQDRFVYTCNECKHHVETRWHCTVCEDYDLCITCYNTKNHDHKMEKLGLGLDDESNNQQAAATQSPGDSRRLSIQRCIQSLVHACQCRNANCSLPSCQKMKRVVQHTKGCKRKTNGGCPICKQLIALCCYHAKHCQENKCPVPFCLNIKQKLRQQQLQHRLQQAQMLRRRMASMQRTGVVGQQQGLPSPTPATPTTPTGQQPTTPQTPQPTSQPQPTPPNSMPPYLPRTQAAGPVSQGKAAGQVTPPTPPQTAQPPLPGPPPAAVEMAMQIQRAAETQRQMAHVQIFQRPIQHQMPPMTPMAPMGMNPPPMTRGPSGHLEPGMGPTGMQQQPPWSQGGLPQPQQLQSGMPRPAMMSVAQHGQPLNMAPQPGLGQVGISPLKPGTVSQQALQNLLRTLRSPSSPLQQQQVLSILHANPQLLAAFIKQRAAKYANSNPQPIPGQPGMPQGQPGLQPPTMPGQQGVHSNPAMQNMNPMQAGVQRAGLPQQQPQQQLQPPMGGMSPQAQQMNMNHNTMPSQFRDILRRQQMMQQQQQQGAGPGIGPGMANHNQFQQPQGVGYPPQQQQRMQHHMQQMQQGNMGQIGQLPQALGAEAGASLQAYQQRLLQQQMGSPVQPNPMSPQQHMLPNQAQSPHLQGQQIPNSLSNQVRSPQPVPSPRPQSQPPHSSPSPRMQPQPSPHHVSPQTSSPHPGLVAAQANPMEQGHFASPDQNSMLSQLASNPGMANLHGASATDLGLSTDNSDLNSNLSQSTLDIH
Assay explanation: Inhibition of p300 (unknown origin) using histone H3 (1 to 21 residues) as substrate preincubated for 15 mins followed by substrate and [3H]acetyl-CoA addition and measured after 60 mins by scintillation counting analysis
Readout: pIC50
Here pIC50 is given on a logarithmic scale as minus log10 of the concentration in mol/L.

Ask: Please give measured pIC50 of the following entry: CCC[C@@H]1CCc2ccccc2CN1C(=O)CN1C(=O)O[C@@]2(CCc3cc(NC(=O)NC)ccc32)C1=O
Reply: 8.40

Ask: Please give measured pIC50 of the following entry: Cn1cc(-c2ccc3c(n2)CC[C@]32NC(=O)N(CC(=O)N3Cc4cc(F)ccc4OC[C@H]3C(F)(F)F)C2=O)cn1
Reply: 7.85

Ask: Please give measured pIC50 of the following entry: CNC(=O)Nc1ccc2c(c1)CC[C@@]21NC(=O)N(CC(=O)N2Cc3cc(F)ccc3OC[C@H]2C2CC2)C1=O
Reply: 7.14

Ask: Please give measured pIC50 of the following entry: CNC(=O)Nc1ccc2c(c1)CC[C@@]21OC(=O)N(CC(=O)N2Cc3ccccc3CC[C@H]2C(F)(F)F)C1=O
Reply: 8.59

Reference for the values: ChEMBL document CHEMBL4321876
